# TESTED_ON: T1, NPR-B (natriuretic peptide receptor B), murine, expressed endogenously on NIH3T3 cells (murine, UniProt Q6VVW5 17-1047)
# T1 sequence (looked up): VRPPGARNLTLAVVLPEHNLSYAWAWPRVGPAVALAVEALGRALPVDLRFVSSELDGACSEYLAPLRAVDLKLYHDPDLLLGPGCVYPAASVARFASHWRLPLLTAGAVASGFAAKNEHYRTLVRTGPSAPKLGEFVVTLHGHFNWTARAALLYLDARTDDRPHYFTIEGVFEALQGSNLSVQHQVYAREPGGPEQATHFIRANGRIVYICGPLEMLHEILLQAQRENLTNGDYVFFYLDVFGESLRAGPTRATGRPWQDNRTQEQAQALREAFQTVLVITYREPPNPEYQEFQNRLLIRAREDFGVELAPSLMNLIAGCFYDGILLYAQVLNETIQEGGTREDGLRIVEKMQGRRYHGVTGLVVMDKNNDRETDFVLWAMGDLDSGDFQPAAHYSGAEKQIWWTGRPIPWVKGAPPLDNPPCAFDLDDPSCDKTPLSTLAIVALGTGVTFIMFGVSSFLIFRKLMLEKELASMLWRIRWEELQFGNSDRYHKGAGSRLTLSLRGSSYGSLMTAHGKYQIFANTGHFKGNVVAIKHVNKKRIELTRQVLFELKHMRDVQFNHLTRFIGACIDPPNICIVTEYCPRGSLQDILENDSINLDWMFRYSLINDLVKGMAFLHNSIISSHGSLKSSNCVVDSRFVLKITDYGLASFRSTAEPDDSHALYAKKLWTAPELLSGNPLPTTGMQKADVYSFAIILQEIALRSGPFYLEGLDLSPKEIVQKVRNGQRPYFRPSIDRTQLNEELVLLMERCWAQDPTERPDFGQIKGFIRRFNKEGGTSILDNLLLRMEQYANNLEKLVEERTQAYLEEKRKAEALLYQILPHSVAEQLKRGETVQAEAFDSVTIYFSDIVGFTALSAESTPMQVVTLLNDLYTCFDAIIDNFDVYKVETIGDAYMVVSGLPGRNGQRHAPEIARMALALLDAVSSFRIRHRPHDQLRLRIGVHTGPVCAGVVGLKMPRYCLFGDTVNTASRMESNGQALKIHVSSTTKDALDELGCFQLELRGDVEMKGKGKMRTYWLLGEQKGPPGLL
# ASSAY_METHOD_TEXT: cell-based or functional assay
Bridges are numbered along the chain shown (N, C = ends). Where no end group is shown, it is not given here.
Recorded cGMP response rel. to 1 uM CNP22; 1 uM peptide, NIH3T3 cells, one value per entry.
READOUT_KIND: cGMP response rel. to 1 uM CNP22; 1 uM peptide, NIH3T3 cells

BINDER	EXPERIMENTAL_VALUE
AAWARLLQEHPNARGLSKGCFGLKLDRIGSMSGLGC (ends and bridges not checked; cysteine pairing not given here) [AAWARLLQEHPNAR-CNP22]	84 rel. to 1 uM CNP22 (100)
ERGLSRGCFGLKLDRIGSMSGLGC [ER-CNP22, K4R]	113 rel. to 1 uM CNP22 (100)
GQPREPQVYTGANQQGLSRGCFGLKLDRIGSMSGLGC [GQPREPQVYTGANQQ-CNP22, K4R (IgG1(Fc) fragment)]	32 rel. to 1 uM CNP22 (100)
GSTGQWHSESGANQQGLSRGCFGLKLDRIGSMSGLGC [GSTGQWHSESGANQQ-CNP22, K4R (fibrinogen)]	33 rel. to 1 uM CNP22 (100)
GANSSGLSRGCFGLKLDRIGSMSGLGC [GANSS-CNP22, K4R]	88 rel. to 1 uM CNP22 (100)
SPKMVQGSGCFGLKLDRIGSMSGLGCKVLRRH (disulfide 10-26 (inferred)) [SPKMVQGSG-CNP17-KVLRRH (BNP tails)]	102 rel. to 1 uM CNP22 (100)

Source: patent USRE48267E1
